Provenance of the data: PubChem BioAssay (NCI)

System: SR leukemia
Test: NCI tumour cell line growth inhibition, 48 h
readout-kind: TGI

# query: TGI | item CCCN(CCCc1ccccc1)CCc1ccc2[nH]c(=S)[nH]c2c1 | system: SR leukemia
25.1 µM

###

Test system: SK-MEL-5 melanoma
Test: NCI tumour cell line growth inhibition, 48 h
readout-kind: TGI

compound	test-system	result
CCOC1=C2C(=O)OC(=O)C2C2CCCCC2=C1 (stereo not drawn)	SK-MEL-5 melanoma	> 100 µM
CC[C@@H]1CC[C@@H]2[C@H](CC[C@]3(C)[C@@H](OS(=O)(=O)c4ccc(C)cc4)CC[C@@H]23)[C@H]1COS(=O)(=O)c1ccc(C)cc1	SK-MEL-5 melanoma	> 100 µM
Cc1ccc(N2C(=O)CS/C2=C(\C#N)c2nc3ccccc3[nH]2)cc1	SK-MEL-5 melanoma	> 100 µM
Cc1ccc([N+](=O)[O-])cc1NC(=O)/C(=N/NC(=S)NN)C1SC(=S)NC1=O (stereo not drawn)	SK-MEL-5 melanoma	> 100 µM
Cc1oc2c(C)c3oc(=O)cc(C)c3cc2c1CN1C(=O)C2OCCOCCOCCOCCOCCO[C@H]2C1=O (stereo partly drawn)	SK-MEL-5 melanoma	> 100 µM

Please give the measured TGI for this compound: Cc1nn(C(=O)Cc2ccccc2)c2c1C(c1ccc(O)cc1O)SC(N)=N2 (stereo not drawn)
> 100 µM

# repeat for COC(=O)CC1NC(=O)[C@@H]1C(C)O (stereo partly drawn)
> 100 µM

Entry O=CN/C=C/c1cccc(O)c1 please
> 75.6 µM

###

Test system: MDA-MB-231 breast
Assay: NCI tumour cell line growth inhibition, 48 h
readout-kind: TGI

molecule	result
Nc1ccc2c(SCc3ccc([N+](=O)[O-])cc3)c3ccccc3nc2c1	> 55.8 µM

What value of TGI has been recorded for this entry: O=c1ccn(C2CC(O)C(CO)O2)c(=O)[nH]1 (centres undefined)
> 5000 µM

Follow-up entry: CCOC(=O)C1=NN(c2ccc(C)cc2)C2=CC(C)=NN(C)C(=S)N21
> 100 µM

Param item: C[C@@H](c1ccccc1)N1CN(C(=O)OCc2ccccc2)C(C)(C)CC1=O
> 100 µM

Another molecule to look at: c1ccc(CN2CCC3(CC2)SSC2(CCN(Cc4ccccc4)CC2)S3)cc1
> 100 µM

Now try COc1cc2ccccc2oc1=O .
> 100 µM

Further, for C=CCC1(OC(C)=O)C2OC(=O)C1(O)OCC2O (centres undefined) ?
> 100 µM

Now the same for CCOC(=O)C(NC(=O)c1ccco1)(Nc1nc2ccc(OCC)cc2s1)C(F)(F)F (centres undefined)
> 100 µM

Could you do the same for CCCc1cc(=O)[nH]c(-n2nc(C)cc2C)n1 , please?
> 100 µM

###

Catalogue of TGI values
System: NCI/ADR-RES ovarian
Assay: NCI tumour cell line growth inhibition, 48 h

Sample answers from the record:
compound	TGI
CCn1cnc(C[C@H](NC(=O)[C@@H](NC(=O)Nc2cc(C(F)(F)F)cc(C(F)(F)F)c2)C(C)C)C(=O)OC)c1	> 10 µM
O=c1[nH]nc(NNc2ccccc2)c2nnn(C3CCCCC3)c12	> 100 µM
COC(=O)c1ccccc1OCc1cc(=O)oc2ccc(C)cc12	> 100 µM

Param readout = TGI; param system = NCI/ADR-RES ovarian; param query = O=C1NCc2ccccc2S(=O)(=O)n2cccc21 ; response: value
> 100 µM

###

Below, each entry is listed with its recorded TGI.
System: UO-31 renal
Assay: NCI tumour cell line growth inhibition, 48 h

Field: example entries. Status: answers known.
molecule	TGI
COc1cccc([C@H]2C/C(=N\NC(=O)C(=O)N[C@@H](C)c3ccccc3)c3ccccc3N2)c1	> 100 µM
Cc1ccc(NC2=CC(=O)C(NO)c3ccccc32)cc1 (stereo unspecified)	12.2 µM
CNc1ccc2c(c1)[C@@]1(C)c3ccccc3[C@@H](C2)N1C	> 100 µM
N.N.N.N.N.[Cl-].[Co+3].c1ccc(-c2nn[n-]n2)cc1	> 100 µM
CCC1CN(C(=O)c2ccccc2)C(Cc2c[nH]c3ccccc23)C(=O)C1CC(=O)OC (stereo unspecified)	> 100 µM

// moving on: another record for TGI
Looking for the measured TGI of O=C1C2C3C=C4c5ccccc5N(c5ccccc5)C4(C2C(=O)N1c1ccc(Cl)cc1)[C@H]1C(=O)N(c2ccc(Cl)cc2)C(=O)[C@@H]31 (stereo partly specified) , can you help?
> 100 µM

###

Test system: HCC-2998 colon
Test: NCI tumour cell line growth inhibition, 48 h
TGI listing for selected compounds.
API: value field is a number in µM; no unit string.

smiles-string	readout-kind	unit-string	quantitative-readout
Cc1ccc(-c2nc(C#N)c(S(=O)(=O)n3nc(C)cc3N)o2)cc1	TGI	µM	38

What TGI value was documented for this compound, O=C(NCCNCCCNC(=O)c1cc(-c2ccccc2)nc2ccccc12)c1cccc(O)c1O ?
17.4

###

System: UO-31 renal
Assay: NCI tumour cell line growth inhibition, 48 h
readout-kind: TGI

Use the examples below as a reference point.
compound	test-system	result
Cc1cc(C(=C2C=CC(=Nc3ccccc3)C=C2)c2ccc(Nc3ccccc3)cc2)ccc1N	UO-31 renal	1.38 µM
CN(C)CCCNc1ccc([N+](=O)[O-])c2nc3ccccc3c(N)c12	UO-31 renal	2.97 µM
Clc1ccc(N=Nc2nc3ccccc3nc2N=Nc2ccc(Cl)cc2Cl)c(Cl)c1	UO-31 renal	> 100 µM
COc1ccc2c(c1)[nH]c1c(/C=C/c3ccccc3)nccc12	UO-31 renal	24 µM

Requested field: TGI. Item: O=C(/C=C/c1ccccc1)NNC(=O)c1c(Cl)c(Cl)c(Cl)c(Cl)c1-c1nc2ccccc2[nH]1
55.6 µM

Note, next up: CN(C)C(=S)/N=c1\ssc(=S)n1Cc1ccccc1
54 µM

Further, for Cc1cccc(CP(Cc2cccc(C)c2)CC2(Cp3c4ccccc4c4ccccc43)COC2)c1 ?
> 100 µM

Next compound: c1ccc(CN2CCC3(CC2)SSC2(CCN(Cc4ccccc4)CC2)S3)cc1
> 100 µM

Query O=C(O)C1C2CCC(O2)C1C(=O)Nc1cccc2cccnc12 (stereo not drawn) next
> 100 µM

Continue with Nc1cccc(/C=C/C(=O)N2CCN(CCOC(c3ccccc3)c3ccccc3)CC2)c1
30.5 µM

Try CCOC(=O)c1cn2c(n1)sc1c(Cl)c(Cl)ccc12 next.
> 100 µM

Next entry: Cc1ccc(SSc2ccc(C)cc2C(=O)O)c(C(=O)O)c1
> 100 µM

Okay, and CC12CC3OC(=O)C1COC14OC5(C2C1=O)C(O)(CCC1C4CC(O)C2(O)CC=CC(=O)C12C)C(=O)OC35C (stereo not drawn) ?
> 100 µM

Then Cc1cc2c(C)nn(Cc3ccccc3)c2c(C(N)=O)c1C ?
> 100 µM

Request: CCn1cnc(C[C@H](NC(=O)[C@@H](NC(=O)Nc2cc(C(F)(F)F)cc(C(F)(F)F)c2)C(C)C)C(=O)OC)c1
> 10 µM

Next entry: Cc1cc2c(cc1Cl)S(=O)(=O)OC(c1ccc([N+](=O)[O-])cc1)=N2
> 100 µM

Same again, this time with NC(=O)c1ccc(I)c(N=O)c1
57.8 µM

Further, for COc1ccc(N=Cc2ccc(N(CCC#N)S(=O)(=O)c3ccccc3)cc2)cc1 ?
> 100 µM

###

Tested on: NCI-H460 lung
Assay: NCI tumour cell line growth inhibition, 48 h
Reported TGI values follow for various compounds

compound	test-system	result
Cc1cc(NCCCCCCNc2cc(C)nc3cc(N(C)C)ccc23)c2ccc(N(C)C)cc2n1	NCI-H460 lung	> 100 µM

I am curious: what TGI value has been reported for CCCc1cc(=O)[nH]c(-n2nc(C)cc2C)n1 ?
> 100 µM

Then NC(=O)c1c(NC(=O)c2ccccn2)sc2c1CCC(=O)C2 ?
> 100 µM

Then COc1cc(OC)nc(-n2c(N)c(C#N)c3ccc([N+](=O)[O-])cc3c2=O)n1 ?
> 100 µM

Continue with Cc1cn(C2CC(O)C(COC(=O)NCCC(F)(F)C(F)(F)C(F)(F)C(F)(F)F)O2)c(=O)[nH]c1=O (stereo not given)
> 100 µM

Now consider O=C(OCN1C(=O)C2C3C=CC(C2C1=O)C1C2C(=O)N(COC(=O)C4CCCN4)C(=O)C2C31)C1CCCN1 (stereo not given) .
> 56.5 µM

Entry CC[C@@H]1CC[C@@H]2[C@H](CC[C@]3(C)[C@@H](OS(=O)(=O)c4ccc(C)cc4)CC[C@@H]23)[C@H]1COS(=O)(=O)c1ccc(C)cc1 please
> 100 µM

###

System: COLO 205 colon
Assay: NCI tumour cell line growth inhibition, 48 h
TGI: recorded values

Some entries whose results are on file:
molecule	readout-kind	result
CCOc1ccc(/C(Cl)=C(\C=O)c2ccc(OC)c(OC)c2)cc1OCC	TGI	> 100 µM
O=C(c1ccc(Cl)cc1)N(C(=O)N1CCC(c2ccccc2)CC1)c1ccccc1	TGI	> 100 µM

Kindly consider the entry below.
Would you kindly share the measured TGI for CC1OC(OC2C[C@](O)(C(=O)CF)Cc3c(O)c4c(c(O)c32)C(=O)c2ccccc2C4=O)CC(N)C1O (stereo partly drawn) ?
0.266 µM
